- measurement_protocol: Binary supramolecular self-assembly systems of polymer and target: guest concentration over incubation time (Comparative Example 2)
- Type: physicochemical
- experimental_parameters: binary system with 0.5% polymer 107; incubation 6 h
Tag: yes if measured Concentration of the target in the solution measured after different incubation time is not below 200 µg/mL, no if it is.

Record excerpt, results attached:
[[record]]
compound = "CCCCC1OC(=O)c2ccccc21 (centres unmarked) [Butylphthalide]"
group = "yes"

[[record]]
compound = "CC#CC(=O)N1CCC[C@H]1c1nc(-c2ccc(C(=O)Nc3ccccn3)cc2)c2c(N)nccn12"
group = "no"

[[record]]
compound = "Cc1ccc(-c2cc(C(F)(F)F)nn2-c2ccc(S(N)(=O)=O)cc2)cc1"
group = "no"


(Q) Identify whether the reported Concentration of the target in the solution measured after different incubation time of the following compound is 200 µg/mL or greater: CC(=O)c1c(C)c2cnc(Nc3ccc(N4CCNCC4)cn3)nc2n(C2CCCC2)c1=O
(A) no

(Q) Identify whether the reported Concentration of the target in the solution measured after different incubation time of the following compound is 200 µg/mL or greater: CC1(C)CCC(CN2CCN(c3ccc(C(=O)NS(=O)(=O)c4ccc(NCC5CCOCC5)c([N+](=O)[O-])c4)c(Oc4cnc5[nH]ccc5c4)c3)CC2)=C(c2ccc(Cl)cc2)C1
(A) no

Data provenance is patent US20250339399A1.
